Target: Ovine COX-1 (Ovis aries)
Construct: purchased Cayman Chemical, Ann Arbor, MI, USA 760111
Sequence (P05979 25-600): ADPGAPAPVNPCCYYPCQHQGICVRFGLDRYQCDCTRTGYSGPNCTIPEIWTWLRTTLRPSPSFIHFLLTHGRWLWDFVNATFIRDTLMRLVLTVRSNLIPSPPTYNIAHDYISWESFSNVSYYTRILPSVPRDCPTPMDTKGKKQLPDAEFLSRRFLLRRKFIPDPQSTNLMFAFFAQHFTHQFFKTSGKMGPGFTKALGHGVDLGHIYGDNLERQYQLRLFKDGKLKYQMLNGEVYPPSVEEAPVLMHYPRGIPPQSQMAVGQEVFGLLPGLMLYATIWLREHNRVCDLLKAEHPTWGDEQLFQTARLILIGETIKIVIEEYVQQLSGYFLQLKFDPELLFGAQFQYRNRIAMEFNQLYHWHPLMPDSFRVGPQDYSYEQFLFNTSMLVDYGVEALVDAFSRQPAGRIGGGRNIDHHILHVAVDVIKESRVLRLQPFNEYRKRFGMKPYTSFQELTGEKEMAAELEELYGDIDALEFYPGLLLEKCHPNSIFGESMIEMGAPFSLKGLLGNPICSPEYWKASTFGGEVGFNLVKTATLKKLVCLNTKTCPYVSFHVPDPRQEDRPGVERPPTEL
Assay: In vitro COX inhibition colorimetric assay
Assay type: biochemical
METRIC: IC50 (µM)

Cc1ccc(NN=Cc2c(-c3ccc(S(C)(=O)=O)cc3)[nH]c3ccc(F)cc23)cc1 [Compound 7k]: 8.24
Cc1ccc2[nH]c(-c3ccc(S(C)(=O)=O)cc3)c(-c3nc4cc(Cl)ccc4[nH]3)c2c1 [Compound 8c]: 11.2
CS(=O)(=O)c1ccc(-c2[nH]c3ccc(F)cc3c2-c2nc3cc(Cl)ccc3[nH]2)cc1 [Compound 8b]: 9.41
CS(=O)(=O)c1ccc(-c2[nH]c3ccccc3c2C=NO)cc1 [Compound 9a]: 10.6
CS(=O)(=O)c1ccc(-c2[nH]c3ccc(F)cc3c2C=NO)cc1 [Compound 9b]: 9.42
CS(=O)(=O)c1ccc(-c2[nH]c3ccc(F)cc3c2/C=N/Nc2ccc(S(N)(=O)=O)cc2)cc1 [Compound 7i]: 13.2
CS(=O)(=O)c1ccc(NN=Cc2c(-c3ccc(S(C)(=O)=O)cc3)[nH]c3ccccc23)cc1 [Compound 7b]: 12.4
CS(=O)(=O)c1ccc(-c2[nH]c3ccccc3c2C=NNc2ccc(F)cc2)cc1 [Compound 7a]: 10.3
Cc1ccc2[nH]c(-c3ccc(S(C)(=O)=O)cc3)c(C=NNc3ccc(F)cc3)c2c1 [Compound 7f]: 9.73
CS(=O)(=O)c1ccc(N/N=C/c2c(-c3ccc(S(C)(=O)=O)cc3)[nH]c3ccc(F)cc23)cc1 [Compound 7h]: 12.4
CS(=O)(=O)c1ccc(-c2[nH]c3ccccc3c2-c2nc3cc(Cl)ccc3[nH]2)cc1 [Compound 8a]: 10.6
CS(=O)(=O)c1ccc(-c2[nH]c3ccc(F)cc3c2C=NNc2ccc(F)cc2)cc1 [Compound 7j]: 10.8
CS(=O)(=O)c1ccc(-c2[nH]c3ccccc3c2C=NNc2ccc(S(N)(=O)=O)cc2)cc1 [Compound 7c]: 11.4
Cc1ccc2[nH]c(-c3ccc(S(C)(=O)=O)cc3)c(C=NO)c2c1 [Compound 9c]: 8.24
Cc1ccc2[nH]c(-c3ccc(S(C)(=O)=O)cc3)c(/C=N/Nc3ccc(S(C)(=O)=O)cc3)c2c1 [Compound 7d]: 10.4
Cc1ccc(NN=Cc2c(-c3ccc(S(C)(=O)=O)cc3)[nH]c3ccc(C)cc23)cc1 [Compound 7g]: 7.9
Cc1ccc2[nH]c(-c3ccc(S(C)(=O)=O)cc3)c(/C=N/Nc3ccc(S(N)(=O)=O)cc3)c2c1 [Compound 7e]: 9.7
